B1: Azoarcus group I ribozyme (parent)
chain: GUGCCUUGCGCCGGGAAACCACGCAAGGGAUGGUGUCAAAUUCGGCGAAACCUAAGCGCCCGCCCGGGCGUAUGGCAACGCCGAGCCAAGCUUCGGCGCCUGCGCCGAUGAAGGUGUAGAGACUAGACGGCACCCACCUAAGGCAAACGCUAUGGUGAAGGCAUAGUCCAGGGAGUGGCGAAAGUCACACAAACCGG

Variants of: B1
assay details: reverse-splicing fitness (ratio to wild type); higher = more active; in vitro selection; Mg2+ level not given

mutation	reverse-splicing fitness
A111U A120G A145G C150U	0.133
C82G C150G U176A	0.0255
C82A A145C C169A U176G	0.00487
C82U A111U C150U U176A	0.0519
C82G A111U A120C C169A	0.00833
C82G A111G A145C C150G C169G U176C	0.00856
C82A A111U A120C A145C C169U U176C	0.0149
A111C A145C C150U U176G	0.11
A111U A145G C169G U176C	0.0358
C82U A111C A120U C150G C169G U176G	0.00254
C82U A111G A120C A145U C169U U176A	0.0139
C82G A111C A145C C169A	0.00847
C82U C150G C169A	0.00916
A111U A145G C169A U176G	0.00593
C82U A111G A120G A145C C150G C169G U176A	0.00868
A111C A120C A145C C150G C169A U176C	0.00793
C82G A111C A120G A145U C150G C169G	0.00781
A111C A120U C169A	0.00479
A111U A120C A145G C150A U176A	0.0518
C82A A145U C150G U176C	0.0521
C82A A111G A120C C150U C169U U176G	0.00647
A111G A120U A145G C150U C169A U176C	0.00357
A111U A120C A145C C150A	0.0343
A111C A120G A145C C150A C169U	0.0139
A111C A145G C150A C169G	0.0154
A111G A120G C150G C169G U176C	0.00503
C82G A145C C150U C169A U176G	0.00476
A111G A120C A145U C150G C169G	0.00597
C82G A111G A120U A145U C150A C169A U176C	0.00223
C82U A120C A145G U176G	0.00954
C82U A120U A145U C169G U176G	0.0013
C82A A111U A145C C150U C169G U176G	0.00743
A111U A120G A145G C150G C169A U176A	0.0126
C82U A111C A120U A145C C150G C169G U176A	0.0028
A111C A120C A145G C169U U176A	0.033
A111U A145U C150A C169A U176C	0.00995
